// reported Kd per item
# Target System: T1, EsCas13d, nuclease-dead (Eubacterium siraeum, UniProt B0MS50, R295A;H300A;R849A;H854A)
# T1 sequence: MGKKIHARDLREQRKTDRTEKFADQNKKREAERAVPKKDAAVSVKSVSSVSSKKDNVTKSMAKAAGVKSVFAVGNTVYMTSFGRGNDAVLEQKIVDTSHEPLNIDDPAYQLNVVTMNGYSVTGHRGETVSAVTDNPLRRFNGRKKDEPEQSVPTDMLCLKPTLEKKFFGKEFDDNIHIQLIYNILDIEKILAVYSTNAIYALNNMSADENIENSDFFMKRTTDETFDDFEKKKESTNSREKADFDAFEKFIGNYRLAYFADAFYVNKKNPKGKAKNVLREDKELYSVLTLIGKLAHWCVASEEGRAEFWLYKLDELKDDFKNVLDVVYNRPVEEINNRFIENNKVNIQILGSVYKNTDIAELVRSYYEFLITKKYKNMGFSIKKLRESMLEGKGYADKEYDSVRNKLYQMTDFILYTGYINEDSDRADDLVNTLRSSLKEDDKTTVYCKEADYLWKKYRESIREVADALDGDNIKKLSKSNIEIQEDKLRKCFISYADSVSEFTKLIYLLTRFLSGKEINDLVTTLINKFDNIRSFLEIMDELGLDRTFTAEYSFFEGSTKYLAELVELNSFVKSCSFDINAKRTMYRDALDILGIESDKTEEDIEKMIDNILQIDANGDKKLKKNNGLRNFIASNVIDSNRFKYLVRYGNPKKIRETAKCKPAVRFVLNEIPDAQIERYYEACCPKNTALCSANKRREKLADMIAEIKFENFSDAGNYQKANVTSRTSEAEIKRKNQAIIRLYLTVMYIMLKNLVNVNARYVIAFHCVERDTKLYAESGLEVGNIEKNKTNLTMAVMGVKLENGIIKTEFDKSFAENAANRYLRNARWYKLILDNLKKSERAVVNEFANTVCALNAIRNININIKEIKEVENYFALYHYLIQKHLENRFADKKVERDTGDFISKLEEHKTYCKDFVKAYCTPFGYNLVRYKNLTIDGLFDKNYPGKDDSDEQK
# Experimental Protocol: crRNA (strand 1, pre-loaded); Mg2+; 40 mM Tris-HCl pH 7.5, 150 mM NaCl, 6 mM MgCl2, 1 mM DTT, 0.1% Tween-20, 0.2 mg/ml BSA; 25 C; 10 min per concentration, then washed
# Setup Conditions: tags: His6-TwinStrep-SUMO cleaved; N-terminal SNAP kept (SNAP-Surface 488); label: 3' end held by stalled T7 RNA polymerase
Provide the reading as a plain figure in nM.

Use these answered entries as a reference point.
Binder	Unit Of Measurement	Kd
target 1 G5C,C22U (mixed) RNA 1: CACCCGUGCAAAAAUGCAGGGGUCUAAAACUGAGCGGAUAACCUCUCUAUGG RNA 2: GGGAAUGGAUCCACAUCUACGAAUUCGUAUCAUAGAGAGGUUAUCCCCUCACCGAGAUCGGAAGAGCACACGU	nM	22.6
target 1 U10C,G13U (mixed) RNA 1: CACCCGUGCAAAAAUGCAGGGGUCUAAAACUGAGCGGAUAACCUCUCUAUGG RNA 2: GGGAAUGGAUCCACAUCUACGAAUUCGUACCAUAGAGAUGUCAUCCGCUCACCGAGAUCGGAAGAGCACACGU	nM	71
target 1 C4A,G12A (mixed) RNA 1: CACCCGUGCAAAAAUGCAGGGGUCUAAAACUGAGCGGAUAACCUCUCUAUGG RNA 2: GGGAAUGGAUCCACAUCUACGAAUUCGUACCAUAGAGAGAUUAUCCGAUCACCGAGAUCGGAAGAGCACACGU	nM	4.9

Let us move to another entry and its Kd.
### Prompt Param item = target 1 G5U,C6U (mixed) RNA 1: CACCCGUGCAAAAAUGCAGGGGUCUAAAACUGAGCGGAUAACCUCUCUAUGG RNA 2: GGGAAUGGAUCCACAUCUACGAAUUCGUACCAUAGAGAGGUUAUCUUCUCACCGAGAUCGGAAGAGCACACGU ; retrieve measured Kd.
### Response 48
